# Tested on: OVCAR-3 ovarian
# experiment-summary: NCI tumour cell line growth inhibition, 48 h
assay-metric: log10 TGI (log10 of the value in µM)

>>> numeric_value("CC[C@@H](C(=O)[C@H](C)[C@H](O)[C@@H](C)[C@H]1O[C@H]([C@@H](CC)C(=O)O)CC[C@H]1C)C1O[C@]2(C=C[C@@H](O)[C@]3(CC[C@@](C)([C@H]4CC[C@](O)(CC)[C@H](C)O4)O3)O2)[C@H](C)C[C@@H]1C (stereo partly specified)")
1.27
>>> numeric_value("Cc1[nH]c(C(=O)Nc2ccccc2OC2CCNCC2)c(Cl)c1Cl")
0.23
>>> numeric_value("COc1ccc(/C=C/C(=N/NC(=O)N/N=C(/C=C/c2ccc(OC)cc2)C(C)(C)CN2CCCCC2)C(C)(C)CN2CCCCC2)cc1")
0.58
>>> numeric_value("CCC(C)[C@H](NC(=O)NC(=O)NC(=O)CI)C(=O)OC (stereo partly specified)")
0.67
>>> numeric_value("COC(=O)c1ccc(NCc2c(O)ccc(O)c2Br)cc1Cl")
1.32
>>> numeric_value("COc1cccc(-n2cc(-c3nc(Nc4cc(C)[nH]n4)c4ccccc4n3)nn2)c1")
1.10
>>> numeric_value("O=C1C(Nc2ccc(Br)cc2)=C(I)C(=O)c2ncccc21")
-0.28
>>> numeric_value("CCCCCCC/C=C/[C@H]1O[C@]2(O)C(=O)C=C3C[C@@H](O[C@@H]4O[C@H](CO)[C@@H](O)C(O)[C@@H]4O)C[C@@H]3[C@H]2C=C1C (stereo partly specified)")
0.71
>>> numeric_value("c1ccc(Nc2nc(-c3ccccn3)cs2)nc1")
1.29
>>> numeric_value("CCCC[n+]1c(/C=C\\c2c(OC)cc(OC)cc2OC)ccc2ccccc21")
0.41
>>> numeric_value("C=C1CCC2C3(C)COC(c4c(OC)cccc4OC)OC3CCC2(C)C1C/C=C1/C(=O)OCC1O (stereo unspecified)")
0.60

* * *

Measured GI50 values are reported for all entries that follow.
# System: UO-31 renal
# experiment-summary: NCI tumour cell line growth inhibition, 48 h
assay-metric: GI50

>>> result("O=C(N=Nc1c(O)[nH]c2ccccc12)c1oc2ccccc2c1CN1CCN(c2ccccc2)CC1")
"1.01 µM"
>>> result("CC1SC2(CCC(c3ccccc3)CC2)N(NC(=O)c2[nH]c3ccc(F)cc3c2-c2ccccc2)C1=O (stereo not given)")
"6.48 µM"
>>> result("CC(C)(CCN=C(N)Nc1ccccn1)c1ccc(C(F)(F)F)cc1")
"10.7 µM"
>>> result("CCC(C)[C@H](NC(=O)NC(=O)NC(=O)CI)C(=O)OC (stereo not given in full)")
"1.73 µM"
>>> result("C[N+](C)(CCCCCC[N+](C)(C)CCCN1C(=O)c2cc3ccccc3cc2C1=O)CCCN1C(=O)c2cc3ccccc3cc2C1=O")
"> 37.5 µM"

* * *

# Test system: NCI/ADR-RES ovarian
# experiment-summary: NCI tumour cell line growth inhibition, 48 h; in the data active = GI50 below about 0.43 µM; inactive = the rest
Labels: 1 for active, -1 for inactive

>>> class_assignment("CCC(C)[C@H](NC(=O)NC(=O)NC(=O)CI)C(=O)OC (stereo partly drawn)")
-1
>>> class_assignment("CCCCCc1cc[n+](CC(=O)c2ccc([N+](=O)[O-])cc2)cc1")
-1
>>> class_assignment("CC[C@@H](C(=O)[C@H](C)[C@H](O)[C@@H](C)[C@H]1O[C@H]([C@@H](CC)C(=O)O)CC[C@H]1C)C1O[C@]2(C=C[C@@H](O)[C@]3(CC[C@@](C)([C@H]4CC[C@](O)(CC)[C@H](C)O4)O3)O2)[C@H](C)C[C@@H]1C (stereo partly drawn)")
-1
>>> class_assignment("Nc1ccccc1NC(=O)c1ccc(CN2CCC/C(=C\\c3ccccn3)C2=O)cc1")
-1
>>> class_assignment("COc1cccc(-n2cc(-c3nc(Nc4cc(C)[nH]n4)c4ccccc4n3)nn2)c1")
1
>>> class_assignment("CCN(Cc1ccccc1Cl)c1ccc(CO)c(Cl)c1")
-1
>>> class_assignment("O=c1c2c(c3ccccc3n1-c1ccccc1)NC(=S)NC2c1ccc(Cl)cc1 (stereo not drawn)")
-1
>>> class_assignment("CCN(CC)CCOc1ccc(/C=C2\\C[C@H]3[C@H]4CC=C5C[C@@H](O)CC[C@]5(C)[C@H]4CC[C@]3(C)[C@H]2O)cc1OC")
-1

* * *

Catalogue of TGI readings, one per entry.
# Test system: HCT-116 colon
# experiment-summary: NCI tumour cell line growth inhibition, 48 h
assay-metric: TGI

>>> result("CC(Oc1ccc(OCC2CCCCC2)cc1)C(=O)NCCO (stereo not given)")
"> 100 µM"
>>> result("Cc1nc2c(cc1C(=O)N/N=C/c1ccc([N+](=O)[O-])cc1)c(=O)n(C)c(=O)n2C")
"> 100 µM"
>>> result("CCC(=O)NC(Nc1cccc(F)c1)(C(F)(F)F)C(F)(F)F")
"> 100 µM"
>>> result("O=C(Nc1ccc(Sc2ccc(N=Nc3c(O)c(S(=O)(=O)O)cc4cc(S(=O)(=O)O)ccc34)cc2)cc1)c1ccc(N=Nc2c(O)ccc3c(S(=O)(=O)O)cc(S(=O)(=O)O)cc23)cc1")
"> 100 µM"
>>> result("CSc1cc(Br)ccc1-n1c(C(=O)c2ccccc2)c(SC)n(-c2ccccc2)c1=O")
"> 100 µM"
>>> result("CC(C)COC(=O)OC(=O)c1ccc(N(C)Cc2cnc3nc(N)nc(N)c3n2)cc1")
"> 100 µM"
>>> result("O=C(/C=C/c1ccccc1Cl)c1cccc2ccccc12")
"12.8 µM"
>>> result("N#CC1(Nc2ccc(-c3ccc(NC4(C#N)CCCC4)cc3)cc2)CCCC1")
"> 100 µM"
>>> result("O=c1c2cccc(F)c2sc2c(N3CCNCC3)nc3ccccc3c12")
"2.16 µM"
>>> result("O=C(NNc1ccc(F)cc1)C1CCC(CNS(=O)(=O)c2ccc(Cl)c(Cl)c2)CC1 (stereo not given)")
"33.9 µM"
>>> result("NC1=NN(c2ccccc2)C(=O)C1/C(=N\\NC(=O)c1cc2ccccc2cc1O)C(=O)Nc1cccc(C(F)(F)F)c1 (stereo not given)")
"94.9 µM"
>>> result("N#Cc1ccsc1NC(=O)COC(=O)c1cccc(S(=O)(=O)N2CCc3ccccc32)c1")
"> 100 µM"
>>> result("CCC(CCC(C)C1CCC2C3CC=C4CC(OC5OC(CO)C(O)C(O)C5O)CCC4(C)C3CCC12C)C(C)C (stereo not given)")
"> 100 µM"
>>> result("O=C(OC[C@H]1C[C@H]2C(=O)CCC[C@H]2O1)c1ccccc1")
"> 100 µM"
>>> result("CCCC[n+]1c(/C=C\\c2c(OC)cc(OC)cc2OC)ccc2ccccc21")
"3.48 µM"
>>> result("CC1=NN2C(c3ccc(C)cc3)=CSC2=NC(C)(C)C1")
"> 100 µM"
>>> result("c1ccc(-c2nnc(SCc3c[nH]c4ccccc34)n2-c2ccccc2)cc1")
"> 100 µM"
>>> result("Cc1ccc2c(c1)C1(OC(=O)c3ccccc31)c1ccc(F)cc1O2 (stereo not given)")
"> 100 µM"
>>> result("O=C(O)C1CCC(=O)N1S(=O)(=O)c1ccccc1 (stereo not given)")
"> 100 µM"
>>> result("Cc1c(-c2ccccc2)c(C#N)c2nnn(C3CCCCC3)c(=O)n12")
"> 100 µM"
>>> result("CCC12CCCNC1c1c(n(C)c3ccccc13)C(C(=O)OC)C2 (stereo not given)")
"> 275 µM"
>>> result("COc1ccc(/C=C/C(=N/NC(=O)N/N=C(/C=C/c2ccc(OC)cc2)C(C)(C)CN2CCCCC2)C(C)(C)CN2CCCCC2)cc1")
"2.6 µM"
>>> result("COc1ccc2c(Cc3c4ccccc4cc4ccccc34)cncc2c1O")
"16.1 µM"
>>> result("O=S1(=O)NC2CCC3NS(=O)(=O)NC4CCC(N1)N4S(=O)(=O)N23 (stereo not given)")
"> 100 µM"
>>> result("O=C(O)CC1NC(/C(=C/c2ccccc2O)NC(=O)c2ccccc2)OC1=O (stereo not given)")
"> 100 µM"
>>> result("C=CCc1cc(C=C(C#N)C#N)cc(OC)c1O")
"> 100 µM"
>>> result("Nc1ccccc1NC(=O)c1ccc(CN2CCC/C(=C\\c3ccccn3)C2=O)cc1")
"> 100 µM"
>>> result("CCCCCc1cc[n+](CC(=O)c2ccc([N+](=O)[O-])cc2)cc1")
"11.4 µM"
>>> result("CCOc1ccc(/C(C=O)=C(\\Cl)c2ccc(OC)c(OC)c2)cc1")
"> 100 µM"
>>> result("O=c1oc2ccccc2c(O)c1/C=N/C(=S)NCc1ccccc1")
"> 100 µM"

* * *

# Tested on: SF-295 CNS
# experiment-summary: NCI tumour cell line growth inhibition, 48 h
# reported TGI; entries follow
assay-metric: TGI

>>> result("CCC(CCC(C)C1CCC2C3CC=C4CC(OC5OC(CO)C(O)C(O)C5O)CCC4(C)C3CCC12C)C(C)C (stereo not drawn)")
"> 100 µM"
>>> result("CCC(=O)NC(Nc1cccc(F)c1)(C(F)(F)F)C(F)(F)F")
"> 100 µM"
>>> result("c1cnc2c(c1)-n1cccc1C1(CCSC1)NN2 (stereo not drawn)")
"> 100 µM"
